The molecules listed here are annotated with their EC50.
molecular target: full-length beta-catenin (Axin site) (Homo sapiens, UniProt P35222); construct: 15 nM full-length beta-catenin, 20 nM FITC labeled peptide in buffer; test: Competition fluorescence polarization assay (Axin site probe); format: binding; settings: competition fluorescence polarization, Table 2; read-out: in vitro FP EC50
Sequence (P35222 whole entry): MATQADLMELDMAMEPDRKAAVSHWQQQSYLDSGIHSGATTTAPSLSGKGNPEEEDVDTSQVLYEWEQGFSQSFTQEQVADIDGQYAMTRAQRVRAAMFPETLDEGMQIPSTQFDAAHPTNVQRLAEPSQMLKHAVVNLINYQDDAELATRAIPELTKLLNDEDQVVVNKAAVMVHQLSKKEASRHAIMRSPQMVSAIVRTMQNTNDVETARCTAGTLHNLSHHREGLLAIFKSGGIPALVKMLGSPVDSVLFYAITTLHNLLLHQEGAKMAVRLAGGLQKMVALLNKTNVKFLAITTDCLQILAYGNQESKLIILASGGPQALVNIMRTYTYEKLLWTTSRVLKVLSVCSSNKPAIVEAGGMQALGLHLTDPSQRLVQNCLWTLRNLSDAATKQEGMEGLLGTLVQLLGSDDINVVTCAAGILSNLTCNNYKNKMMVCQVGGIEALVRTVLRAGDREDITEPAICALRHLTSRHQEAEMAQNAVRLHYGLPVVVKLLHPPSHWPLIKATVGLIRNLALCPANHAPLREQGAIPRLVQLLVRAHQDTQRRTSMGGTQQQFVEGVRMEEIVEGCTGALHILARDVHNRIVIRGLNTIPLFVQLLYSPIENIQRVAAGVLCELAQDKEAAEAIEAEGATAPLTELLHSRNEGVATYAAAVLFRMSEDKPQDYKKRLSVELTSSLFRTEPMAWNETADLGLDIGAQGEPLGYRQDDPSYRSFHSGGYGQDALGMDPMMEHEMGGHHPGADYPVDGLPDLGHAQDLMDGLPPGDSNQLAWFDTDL

[[record]]
molecule = "CCC[C@H](NC(=O)[C@]12CCN(C1)C(=O)OCC=CCCCCCC[C@@](C)(NC(=O)[C@H](C)NC(C)=O)C(=O)N[C@@H]([C@@H](C)CC)C(=O)N[C@@H](CC(C)C)C(=O)N[C@@H](CC(=O)O)C(=O)N[C@@H](C)C(=O)N[C@@H](Cc1ccccn1)C(=O)N[C@@H]([C@@H](C)CC)C(=O)N2)C(=O)N[C@H](C(=O)N[C@@H](Cc1c[nH]c2ccccc12)C(N)=O)C(C)C (single isomer, unassigned) [FP0567c Isomer 1, Ac-A-R8-I-L-D-A-2pyr-I-MB-Nva-V-W-NH2]"
target_or_system = "full-length beta-catenin (Axin site) (Homo sapiens, UniProt P35222)"
measurement_label = "EC50"
recorded_measurement = "> 5 µM"


Challenge: Given the molecule CC[C@H](C)[C@@H]1NC(=O)[C@H](Cc2ccncc2)NC(=O)[C@H](C)NC(=O)[C@H](CC(=O)O)NC(=O)[C@H](CC(C)C)NC(=O)[C@H]([C@@H](C)CC)NC(=O)[C@](C)(NC(=O)[C@H](C)NC(C)=O)CCCCCCC=CCOC(=O)N2CC[C@@](C(=O)N[C@@H](CCCNC(=N)N)C(=O)N[C@H](C(=O)N[C@@H](Cc3c[nH]c4ccccc34)C(N)=O)C(C)C)(C2)NC1=O [FP0538c, Ac-A-R8-I-L-D-A-4pyr-I-MB-R-V-W-NH2] , write its reported EC50.
Response given: 0.5 to 5 µM
